Reported koff values for the following compounds.
Biological target: KIF18a-Microtubule Complex (Homo sapiens (Human), UniProt Q8NI77)
Sequence (Q8NI77 whole entry, looked up): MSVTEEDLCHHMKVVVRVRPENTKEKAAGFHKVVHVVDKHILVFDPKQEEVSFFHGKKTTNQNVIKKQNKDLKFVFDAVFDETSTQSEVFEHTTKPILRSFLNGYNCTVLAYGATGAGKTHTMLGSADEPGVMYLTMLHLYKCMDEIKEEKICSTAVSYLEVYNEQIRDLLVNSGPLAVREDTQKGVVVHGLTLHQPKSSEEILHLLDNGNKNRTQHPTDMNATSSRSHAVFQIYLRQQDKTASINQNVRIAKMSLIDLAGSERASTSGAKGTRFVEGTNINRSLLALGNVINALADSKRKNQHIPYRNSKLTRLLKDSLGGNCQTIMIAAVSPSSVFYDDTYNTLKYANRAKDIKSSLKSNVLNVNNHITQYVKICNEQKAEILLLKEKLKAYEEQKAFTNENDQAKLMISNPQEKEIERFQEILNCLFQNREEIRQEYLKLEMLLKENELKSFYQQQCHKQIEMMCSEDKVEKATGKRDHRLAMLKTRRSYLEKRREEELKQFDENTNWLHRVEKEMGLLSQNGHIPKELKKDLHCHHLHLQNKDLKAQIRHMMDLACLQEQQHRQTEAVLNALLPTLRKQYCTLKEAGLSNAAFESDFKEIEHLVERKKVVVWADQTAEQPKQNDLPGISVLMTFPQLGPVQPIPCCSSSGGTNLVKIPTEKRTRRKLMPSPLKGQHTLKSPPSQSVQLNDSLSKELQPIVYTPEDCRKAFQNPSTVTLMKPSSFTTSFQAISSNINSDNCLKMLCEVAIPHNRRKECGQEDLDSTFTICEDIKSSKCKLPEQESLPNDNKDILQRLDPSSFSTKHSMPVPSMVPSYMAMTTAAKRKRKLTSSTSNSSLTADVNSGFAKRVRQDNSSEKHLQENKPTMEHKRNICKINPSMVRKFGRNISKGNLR
Sequence (Q2XVP4 whole entry partner, looked up): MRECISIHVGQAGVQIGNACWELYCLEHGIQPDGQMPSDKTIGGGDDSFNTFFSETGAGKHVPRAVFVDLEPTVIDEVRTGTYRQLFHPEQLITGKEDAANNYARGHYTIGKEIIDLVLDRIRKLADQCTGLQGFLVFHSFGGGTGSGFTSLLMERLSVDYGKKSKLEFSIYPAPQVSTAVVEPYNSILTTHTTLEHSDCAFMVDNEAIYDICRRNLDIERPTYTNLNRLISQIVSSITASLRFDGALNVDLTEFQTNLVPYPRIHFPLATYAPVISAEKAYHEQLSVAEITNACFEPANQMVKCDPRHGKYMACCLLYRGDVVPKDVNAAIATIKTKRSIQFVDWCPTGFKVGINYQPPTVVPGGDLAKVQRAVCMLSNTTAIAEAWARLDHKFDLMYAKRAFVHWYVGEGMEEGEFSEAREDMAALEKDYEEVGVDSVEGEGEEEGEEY
Sequence (P02554 whole entry partner, looked up): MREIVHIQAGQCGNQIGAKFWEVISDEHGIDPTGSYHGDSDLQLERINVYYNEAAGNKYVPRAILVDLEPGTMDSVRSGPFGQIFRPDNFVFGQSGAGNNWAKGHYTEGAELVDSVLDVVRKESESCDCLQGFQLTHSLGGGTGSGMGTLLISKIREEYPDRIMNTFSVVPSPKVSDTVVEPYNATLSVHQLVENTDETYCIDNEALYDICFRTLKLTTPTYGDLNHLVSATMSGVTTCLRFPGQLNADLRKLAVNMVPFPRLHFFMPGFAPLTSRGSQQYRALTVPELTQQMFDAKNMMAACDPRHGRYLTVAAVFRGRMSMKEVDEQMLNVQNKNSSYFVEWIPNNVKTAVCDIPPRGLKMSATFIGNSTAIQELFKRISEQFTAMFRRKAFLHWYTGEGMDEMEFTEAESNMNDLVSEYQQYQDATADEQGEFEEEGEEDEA
Assay: Binding kinetics to KIF18a-microtubule complex (global progress curve analysis)
Conditions: read-out: koff (off-rate from binding kinetics assay)
Could you give the number and then its unit, please?

Below: 3 compounds and their reported koff.
INSERT INTO measurements (compound, readout_label, observed_result) VALUES
  ('CS(=O)(=O)Nc1ccc2c(c1)C1(CCCCC1)CN2C(=O)c1cccc(S(=O)(=O)N2CCC(F)(F)CC2)c1 [Compound 19]', 'koff', '2.67e-05 s⁻¹'),
  ('O=C(c1cccc(S(=O)(=O)C2CCCC2)c1)N1CC2(CCC3(CC3)CC2)c2cc(NS(=O)(=O)CCO)ccc21 [Compound 229]', 'koff', '5e-06 s⁻¹'),
  ('CC(C)(C)NS(=O)(=O)c1cc(C(=O)N2CC3(CCC4(CC4)CC3)c3cc(NS(C)(=O)=O)ccc32)cs1 [Compound 262]', 'koff', '2.86e-05 s⁻¹');

Please find the next compound below.
So, CC(C)(C)NS(=O)(=O)c1cc(C(=O)N2CC3(CCC4(CC4)CC3)c3cc(NS(C)(=O)=O)ccc32)ccc1O [Compound 298] ? Its koff was 7.5e-06 s⁻¹
